Origin of the recorded values: PubChem BioAssay AID827

- experiment-notes: viability loss in PTEN-deleted colon tumor cells – cell-based, HCT116, CellTiter-Glo, primary screen (AID 827);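 also: PTEN knockout HCT116 line with beta catenin targeted HCT116 as companion control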
- assay-setup: HCT116 PTEN-null viability, 60 h, at 10 µM, hits give low values
Hit rate of the full screen: of about 140,000 compounds, about 1,700 (1.2%) were called active. What follows is part of a selection rich in actives, with near analogues and random picks from the rest.
recorded-endpoint: viability (%)

compound: O=C(CC1SC(=Nc2ccccc2)N(Cc2ccccn2)C1=O)Nc1cccc(Cl)c1 (stereo not given)
recorded-endpoint: viability
recorded-result: 76.2
//
compound: COc1ccc(Nc2cc(C)nc(-n3nc(C)cc3C)n2)cc1
recorded-endpoint: viability
recorded-result: 18.6
//
compound: COc1ccc(NC(=O)/C(Cl)=C(/Cl)S(=O)Cc2ccc(C)cc2)cn1 (stereo not given)
recorded-endpoint: viability
recorded-result: 0.92
//
compound: O=C1CCCC2=C1C(c1ccccc1)n1c(s/c(=C/c3cccc(F)c3)c1=O)=N2 (stereo not given)
recorded-endpoint: viability
recorded-result: 80.9
//
compound: CC(=O)N1CCN(c2cccc(C)c2C)CC1
recorded-endpoint: viability
recorded-result: 98
//
compound: COC(=O)c1sc2ncccc2c1OCc1ccc(Cl)cc1Cl
recorded-endpoint: viability
recorded-result: 63.7
//
compound: CCOC(=O)c1ccc(N/C(=N/S(=O)(=O)c2ccccc2)c2ccccc2)cc1
recorded-endpoint: viability
recorded-result: 102
//
compound: O=C(O)C1CC(=O)N(Cc2cccnc2)C1 (stereo not given)
recorded-endpoint: viability
recorded-result: 100
//
compound: Nc1nnc(SCC(=O)Nc2ccc3nc(SCC(=O)Nc4ccccc4)sc3c2)s1
recorded-endpoint: viability
recorded-result: 72.2
//
compound: Cn1cc(C(=O)NCc2ccccc2F)cn1
recorded-endpoint: viability
recorded-result: 102
//
compound: CCCc1cc(=O)[nH]c(SCC(=O)N2CCN(S(=O)(=O)c3ccc(C)cc3C)CC2)n1
recorded-endpoint: viability
recorded-result: 93
//
compound: Cc1cc(C)cc(OCC(=O)Nc2nc3ccc([N+](=O)[O-])cc3s2)c1
recorded-endpoint: viability
recorded-result: 103
//
compound: CCCCCC(=O)Nc1ccc(C(=O)N/N=C/c2ccc([N+](=O)[O-])cc2)cc1
recorded-endpoint: viability
recorded-result: 1.62
//
compound: CCOc1ccc(S(=O)(=O)N(CC(=O)NCC(F)(F)F)Cc2ccco2)cc1
recorded-endpoint: viability
recorded-result: 99.2
//
compound: O=C1C2C3C=CC(C4CC34)C2C(=O)N1c1nccs1 (stereo not given)
recorded-endpoint: viability
recorded-result: 101
//
compound: Cc1ccc(CN2C(=O)N/C(=C/c3cc(C)n(-c4ccccn4)c3C)C2=O)cc1
recorded-endpoint: viability
recorded-result: 84.5
//
compound: CCCCCNC(=O)c1cccnc1SCC(=O)Nc1ccccc1OC
recorded-endpoint: viability
recorded-result: 91.1
//
compound: CCOC(=O)/C(N=Nc1cc(C(=O)O)cc(C(=O)O)c1)=C(\O)CCl
recorded-endpoint: viability
recorded-result: 101
//
compound: O=C(COC(=O)/C(=C/c1cccs1)c1cccs1)NCc1ccccc1Cl
recorded-endpoint: viability
recorded-result: 91.8
//
compound: Cc1nc(-c2ccccc2)sc1C(=O)/C=C/c1ccccc1
recorded-endpoint: viability
recorded-result: 6.16
//
compound: COC(=O)C(NC(=O)c1ccc(OC)cc1)(Nc1ncc(S(=O)(=O)c2ccc([N+](=O)[O-])cc2)s1)C(F)(F)F (stereo not given)
recorded-endpoint: viability
recorded-result: 72.2
//
compound: COc1ccccc1/C=N\Nc1cc(C)nc(-n2nc(C)cc2C)n1
recorded-endpoint: viability
recorded-result: 2.6
//
compound: COc1ccc(NC(=O)c2nc(-n3nc(C)cc3C)ccc2Cl)cc1Cl
recorded-endpoint: viability
recorded-result: 72.5
//
compound: O=C(/C=C/c1ccccc1)c1ccccc1O
recorded-endpoint: viability
recorded-result: 83.3
//
compound: CN(C)CCNC(=O)Cc1ccc([N+](=O)[O-])cc1
recorded-endpoint: viability
recorded-result: 98.8
//
compound: CCOC(=O)C1=C(C)Nc2nc3ccccc3n2C1c1cccs1 (stereo not given)
recorded-endpoint: viability
recorded-result: 90.1
//
compound: COc1ccc(CCC(=O)OCC(=O)Nc2ccc(C)c(S(=O)(=O)N(C)C)c2)cc1
recorded-endpoint: viability
recorded-result: 96.3
//
compound: COc1ccc(C(=O)O/N=C(\N)Cc2ccc(Cl)cc2Cl)cc1OC
recorded-endpoint: viability
recorded-result: 69.4
//
compound: O=[N+]([O-])c1cccc(S(=O)(=O)N2CCCCCC2)c1
recorded-endpoint: viability
recorded-result: 86.5
//
compound: O=C(Nc1ccccc1)c1cc2ccccc2[nH]1
recorded-endpoint: viability
recorded-result: 66.4
//
compound: CC(=O)c1c(N2CCN(c3ccc(F)cc3)CC2)nc(=S)n(-c2ccccc2)c1C
recorded-endpoint: viability
recorded-result: 93
//
compound: COc1ccccc1C(=O)Nc1ccc(OCc2nnc3c4ccccc4c(C)nn23)cc1
recorded-endpoint: viability
recorded-result: 101
//
compound: Cc1cc2oc(C(=O)Nc3c(C)n(C)n(-c4ccccc4)c3=O)c(C)c2cc1Cl
recorded-endpoint: viability
recorded-result: 85
//
compound: CCCc1cc(-c2nc(-c3ccc(C)cc3)cs2)ccn1
recorded-endpoint: viability
recorded-result: 26.2
//
compound: CNc1nc(Nc2ccc(C)c(Cl)c2)nc(N)c1[N+](=O)[O-]
recorded-endpoint: viability
recorded-result: 2.94
//
compound: Cc1cccc(N2CCN(C(=O)c3cnn4c(C(F)F)cc(-c5ccccc5)nc34)CC2)c1C
recorded-endpoint: viability
recorded-result: 3.53
//
compound: O=C(NC(Nc1nc2ccc([N+](=O)[O-])cc2s1)(C(F)(F)F)C(F)(F)F)c1ccccc1
recorded-endpoint: viability
recorded-result: 1.46
//
compound: O=[N+]([O-])c1ccc(N2CCN(S(=O)(=O)c3ccccc3)CC2)cc1N1CCc2ccccc2C1
recorded-endpoint: viability
recorded-result: 89.4
//
compound: C/C(=N/NC(=O)C1COc2ccccc2O1)c1ccco1 (stereo not given)
recorded-endpoint: viability
recorded-result: 96.5
//
compound: N#C/C(C(=O)N1CCOCC1)=C1/SC(Cc2ccc(F)cc2)C(=O)N1c1ccccc1 (stereo not given)
recorded-endpoint: viability
recorded-result: 89.2
//
compound: Nc1nc(NCCCN2CCOCC2)nc(Nc2ccccc2)c1[N+](=O)[O-]
recorded-endpoint: viability
recorded-result: 63.9
//
compound: O=C1OC(c2ccc(Cl)cc2)=N/C1=C\c1cccnc1
recorded-endpoint: viability
recorded-result: 90.6
//
compound: CCCCCC(=O)NC(=S)NNC(=O)c1ccc([N+](=O)[O-])cc1
recorded-endpoint: viability
recorded-result: 37.4
//
compound: O=C1/C(=C\c2cccnc2)CN(Cc2ccccc2)C/C1=C\c1cccnc1
recorded-endpoint: viability
recorded-result: 1.06
//
compound: O=C(Nc1ccc2ccccc2c1)/C(=C\c1ccc2c(c1)OCO2)NC(=O)c1ccco1
recorded-endpoint: viability
recorded-result: 95.8
